Where do the numbers come from? From ChEMBL document CHEMBL5154737.

experimental-protocol: Tmax in Sprague-Dawley rat at 20 mg/kg, ip measured for 0.03 to 24 hrs by UPLC-MS analysis
Assay type: ADME, organism-based
measurement-setup: in vivo, time 0.03-24 hrs
assay-metric: Tmax (min)

> print(dat)
                                smiles.text  assay.metric  uom  observed.value
1  CC[C@H](C)/C=C(C)/C=C/C1=CC2=C(Cl)C(=O)[C@](C)(O)C(=O)C2=CN1Cc1ccc(OC(F)(F)F)cc1          Tmax  min              45

====

Test system: PANC-1
experimental-protocol: Cytotoxicity against human PANC-1 cells assessed as reduction in cell viability incubated for 72 hrs by MTT assay
Format: functional, cell-based
measurement-setup: PANC-1, 72 h
pIC50: −log10 of the molar value.
assay-metric: pIC50

> print(dat)
                                smiles.text  observed.value
1  CC[C@H](C)/C=C(C)/C=C/C1=CC2=C(Cl)C(=O)[C@](C)(O)C(=O)C2=CN1Cc1ccc(C(F)(F)F)cc1            5.84
2  CC[C@H](C)/C=C(C)/C=C/C1=CC2=C(Cl)C(=O)[C@](C)(O)C(=O)C2=CN1Cc1ccc(OC(F)(F)F)cc1            5.64

====

experimental-protocol: MRT (0 to t) in Sprague-Dawley rat at 20 mg/kg, ip measured for 0.03 to 24 hrs by UPLC-MS analysis
Type: ADME, organism-based
measurement-setup: in vivo, time 0.03-24 hrs
assay-metric: MRT last (h)

> print(dat)
                                smiles.text  assay.metric  observed.value
1  CC[C@H](C)/C=C(C)/C=C/C1=CC2=C(Cl)C(=O)[C@](C)(O)C(=O)C2=CN1Cc1ccc(OC(F)(F)F)cc1      MRT last            4.46

====

experimental-protocol: Half life in Sprague-Dawley rat at 20 mg/kg, ip measured for 0.03 to 24 hrs by UPLC-MS analysis
Type: ADME, organism-based
measurement-setup: in vivo, time 0.03-24 hrs
assay-metric: half-life (h)

> print(dat)
                                smiles.text  uom  observed.value
1  CC[C@H](C)/C=C(C)/C=C/C1=CC2=C(Cl)C(=O)[C@](C)(O)C(=O)C2=CN1Cc1ccc(OC(F)(F)F)cc1    h             2.5

====

experimental-protocol: Cytotoxicity against human HepG2 cells assessed as reduction in cell viability incubated for 72 hrs by MTT assay
Assay type: toxicity, cell-based
Structures can show the parent of a compound that is named as a salt.

compound	IC50 at 72 h
COc1cccc2c1C(=O)c1c(O)c3c(c(O)c1C2=O)C[C@@](O)(C(=O)CO)C[C@@H]3O[C@H]1C[C@H](N)[C@H](O)[C@H](C)O1 [DOXORUBICIN HYDROCHLORIDE]	450 nM
CC[C@H](C)/C=C(C)/C=C/C1=CC2=C(Cl)C(=O)[C@](C)(O)C(=O)C2=CN1Cc1ccc(OC(F)(F)F)cc1	2820 nM
CC[C@H](C)/C=C(C)/C=C/C1=CC2=C(Cl)C(=O)[C@](C)(O)C(=O)C2=CN1Cc1ccc(C(F)(F)F)cc1	3360 nM

====

Tested on: ECa-109 cell line
experimental-protocol: Cytotoxicity against human Eca-109 cells assessed as reduction in cell viability incubated for 72 hrs by MTT assay
Assay type: functional, cell-based
measurement-setup: ECa-109, 72 h
Structures can show the parent of a compound that is named as a salt.

compound	IC50 [nM]
CC[C@H](C)/C=C(C)/C=C/C1=CC2=C(Cl)C(=O)[C@](C)(O)C(=O)C2=CN1Cc1ccc(OC(F)(F)F)cc1	1160
COc1cccc2c1C(=O)c1c(O)c3c(c(O)c1C2=O)C[C@@](O)(C(=O)CO)C[C@@H]3O[C@H]1C[C@H](N)[C@H](O)[C@H](C)O1 [DOXORUBICIN HYDROCHLORIDE]	201
CC[C@H](C)/C=C(C)/C=C/C1=CC2=C(Cl)C(=O)[C@](C)(O)C(=O)C2=CN1Cc1ccc(C(F)(F)F)cc1	1480

====

experimental-protocol: Cmax in Sprague-Dawley rat at 20 mg/kg, ip measured for 0.03 to 24 hrs by UPLC-MS analysis
Format: ADME, organism-based
Design: time lower 0.03 hrs, dose 20 mg/kg, time upper 24 hrs, route ip
measurement-setup: in vivo
assay-metric: Cmax (ng/mL)

> print(dat)
                                smiles.text  observed.value
1  CC[C@H](C)/C=C(C)/C=C/C1=CC2=C(Cl)C(=O)[C@](C)(O)C(=O)C2=CN1Cc1ccc(OC(F)(F)F)cc1            5590
